All values here come from patent US20260001849A1.

Consider the following molecules and their measured pIC50 readings.
Biological target: Human BOAT1 (Homo sapiens, UniProt Q695T7)
Construct: expressed in transfected cells
Sequence (Q695T7 1-634): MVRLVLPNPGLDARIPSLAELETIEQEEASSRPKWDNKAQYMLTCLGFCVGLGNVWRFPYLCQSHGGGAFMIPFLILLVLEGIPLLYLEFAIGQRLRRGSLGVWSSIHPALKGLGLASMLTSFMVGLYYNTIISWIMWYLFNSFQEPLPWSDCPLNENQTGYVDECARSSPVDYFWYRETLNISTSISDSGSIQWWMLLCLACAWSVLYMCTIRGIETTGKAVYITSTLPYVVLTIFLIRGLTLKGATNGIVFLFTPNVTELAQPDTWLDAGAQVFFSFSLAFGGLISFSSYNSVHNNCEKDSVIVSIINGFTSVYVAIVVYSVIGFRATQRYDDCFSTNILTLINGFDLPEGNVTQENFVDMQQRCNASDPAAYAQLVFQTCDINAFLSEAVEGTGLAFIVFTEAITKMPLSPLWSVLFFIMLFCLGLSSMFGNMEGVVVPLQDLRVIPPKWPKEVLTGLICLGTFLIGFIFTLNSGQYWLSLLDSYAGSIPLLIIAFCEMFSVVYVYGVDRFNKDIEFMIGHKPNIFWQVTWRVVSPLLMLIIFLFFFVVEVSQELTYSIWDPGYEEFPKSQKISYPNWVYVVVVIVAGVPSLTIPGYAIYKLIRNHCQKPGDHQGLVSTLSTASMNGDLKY
Experiment: hBOAT1 inhibitory test (phenylalanine uptake)
Format: cell-based
Details: Human BOAT1 stable expression CHO cells; phenylalanine uptake, phenylalanine 0.25 mM; read-out: hB0AT1 IC50
Convention used: pIC50 is expressed as -log10 of the molar concentration.

C[C@@H]1CN(C(=O)CNC(=O)/C=C/c2ccc(C(F)(F)F)cc2)[C@@H](c2ccc(F)c(F)c2)CN1CCCC(=O)O	6.74
CC(C)(CCN1CCN(C(=O)CNC(=O)/C=C/c2ccc(C(F)(F)F)cc2F)C(c2ccc(Cl)cc2)C1)C(=O)O (stereo not drawn)	7.01

Please turn your attention to the following entry.
Query: Identify measured pIC50 corresponding to O=C(O)C[C@H]1CCN(C2CCCN(C(=O)CNC(=O)/C=C/c3ccc(C(F)(F)F)cc3F)C2)C1 (stereo partly drawn)
Reply: 6.06

###

Overview of reported IC50 across a group of compounds:
biological target: hERG channel (Homo sapiens, UniProt Q12809); construct: host or cells: CHO cells; test: hERG channel inhibitory activity, whole-cell patch clamp (auto-patch clamp system); format: cell-based; conditions: read-out: hERG IC50
Sequence (Q12809 whole entry): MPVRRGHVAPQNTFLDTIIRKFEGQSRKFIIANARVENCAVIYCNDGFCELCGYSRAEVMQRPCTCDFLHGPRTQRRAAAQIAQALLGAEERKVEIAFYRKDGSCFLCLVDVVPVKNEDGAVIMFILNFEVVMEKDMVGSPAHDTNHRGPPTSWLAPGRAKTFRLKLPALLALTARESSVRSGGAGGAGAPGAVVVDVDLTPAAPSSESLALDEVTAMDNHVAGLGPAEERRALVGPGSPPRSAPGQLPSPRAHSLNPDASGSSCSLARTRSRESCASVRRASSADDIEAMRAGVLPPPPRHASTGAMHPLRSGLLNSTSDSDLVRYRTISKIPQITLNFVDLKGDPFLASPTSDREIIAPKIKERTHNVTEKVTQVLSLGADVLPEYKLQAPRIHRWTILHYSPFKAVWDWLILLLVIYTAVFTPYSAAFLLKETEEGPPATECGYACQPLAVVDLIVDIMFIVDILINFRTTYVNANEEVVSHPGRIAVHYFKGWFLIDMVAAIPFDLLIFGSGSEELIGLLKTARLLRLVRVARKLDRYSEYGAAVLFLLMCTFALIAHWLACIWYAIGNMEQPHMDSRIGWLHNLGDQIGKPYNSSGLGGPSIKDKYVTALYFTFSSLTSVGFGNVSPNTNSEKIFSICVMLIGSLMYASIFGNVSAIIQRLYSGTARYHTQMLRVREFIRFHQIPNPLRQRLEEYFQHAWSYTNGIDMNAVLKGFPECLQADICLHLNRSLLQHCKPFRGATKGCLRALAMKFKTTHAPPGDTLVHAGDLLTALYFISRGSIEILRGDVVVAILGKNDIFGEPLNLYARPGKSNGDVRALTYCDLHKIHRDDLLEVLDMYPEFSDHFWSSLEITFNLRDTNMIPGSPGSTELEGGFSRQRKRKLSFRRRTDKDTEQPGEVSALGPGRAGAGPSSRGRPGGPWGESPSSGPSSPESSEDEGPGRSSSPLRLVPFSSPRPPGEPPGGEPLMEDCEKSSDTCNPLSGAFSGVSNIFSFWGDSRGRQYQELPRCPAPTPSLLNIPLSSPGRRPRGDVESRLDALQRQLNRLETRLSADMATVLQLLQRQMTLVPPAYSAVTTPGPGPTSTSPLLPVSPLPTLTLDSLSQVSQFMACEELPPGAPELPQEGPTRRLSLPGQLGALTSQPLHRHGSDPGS

Sample records with IC50:
O=C(O)CCCN1CCN(C(=O)CNC(=O)/C=C/c2ccc(C(F)(F)F)cc2F)[C@@H](c2ccc(Br)cc2)C1 [I-232]	19.3 µM
O=C(O)COc1ccc2c(c1)CCN(C(=O)CNC(=O)/C=C/c1ccc(C(F)(F)F)cc1)C2 [I-191]	> 30 µM
O=C(O)Cc1cc2c(s1)CCN(C(=O)CNC(=O)/C=C/c1ccc(C(F)(F)F)cc1)C2 [I-178]	> 30 µM
O=C(/C=C/c1ccc(C(F)(F)F)cc1)NCC(=O)N1CCc2cc([C@@H]3C[C@H]3C(=O)O)ccc2C1 (single isomer, unassigned) [I-288]	> 30 µM
C[C@@H]1CN(C(=O)CNC(=O)/C=C/c2ccc(C(F)(F)F)cc2F)[C@@H](c2ccc(Cl)cc2)CN1CCCC(=O)O [I-337]	15.5 µM
O=C(/C=C/c1ccc(C(F)(F)F)cc1F)NCC(=O)N1CCN(C[C@H]2C[C@H](C(=O)O)C2)CC1c1ccc(Cl)cc1 (stereo partly drawn) [I-248]	> 30 µM
CC(C)(Oc1cc(F)c2c(c1)CCN(C(=O)CNC(=O)/C=C/c1ccc(C(F)(F)F)cc1)C2)C(=O)O [I-195]	> 30 µM
O=C(O)Cc1cc(F)c2c(c1)CCN(C(=O)CNC(=O)/C=C/c1ccc(C(F)(F)F)cc1F)C2 [I-205]	> 30 µM
Cc1cccc([C@H]2CN(CCCC(=O)O)[C@H](C)CN2C(=O)CNC(=O)/C=C/c2ccc(C(F)(F)F)cc2F)c1 [I-385]	21 µM
O=C(O)CCCN1C[C@H](c2ccccc2)N(C(=O)CNC(=O)/C=C/c2ccc(C(F)(F)F)cc2F)CC12CC2 [I-341]	> 30 µM

Query: Determine from records and report IC50 for O=C(O)Cc1cc2c(cc1Cl)CN(C(=O)CNC(=O)/C=C/c1ccc(C(F)(F)F)cc1)CC2 [I-226]
Reply: > 30 µM

Query: State its IC50: O=C(/C=C/c1ccc(C(F)(F)F)cc1F)NCC(=O)N1CCN(CC23CC(C(=O)O)(C2)C3)CC1c1ccc(Cl)cc1 (stereo not drawn) [I-250]
Reply: > 30 µM

Query: Write down IC50 measured for item O=C(O)CCCN1CCN(C(=O)CNC(=O)/C=C/c2ccc(C(F)(F)F)cc2F)C(c2ccccc2Cl)C1 (stereo not drawn) [I-233]
Reply: > 30 µM

Query: Supply IC50 value. Item: O=C(O)CCCN1CCN(C(=O)CNC(=O)/C=C/c2ccc(C(F)(F)F)cc2F)CC1C1CCCCC1 (stereo not drawn) [I-271]
Reply: 16.4 µM

Query: Quickly give me recorded IC50 for O=C(O)Cc1ccc2c(c1Cl)CCN(C(=O)CNC(=O)/C=C/c1ccc(C(F)(F)F)cc1)C2 [I-146]
Reply: 29.9 µM

###

target: hERG channel (Homo sapiens, UniProt Q12809); construct: host or cells: CHO cells; experiment: hERG channel inhibitory activity, whole-cell patch clamp (auto-patch clamp system); format: cell-based; settings: comparative example compounds of WO 2023/145804, read-out: hERG inhibition IC50
observable: pIC50
# pIC50 = -log10(concentration in molar units)

Solved cases (2 shown):
CN1CCN(C(=O)CNC(=O)/C=C/c2ccc(C(F)(F)F)cc2)C(c2ccccc2)C1 (stereo not shown) [Comparative Example compound 1, reference compound]	5.68
O=C(/C=C/c1ccc(C(F)(F)F)cc1)NCC(=O)N1CCNCC1 [Comparative Example compound 2, reference compound]	5.06

Query: # lookup: hERG channel (Homo sapiens, UniProt Q12809) pIC50, key = O=C(/C=C/c1ccc(C(F)(F)F)cc1)NCC(=O)N1CCc2ncsc2C1 [Comparative Example compound 4, reference compound]
Reply: 5.22

Query: Print hERG channel (Homo sapiens, UniProt Q12809) pIC50 for CN1CCN(C(=O)CNC(=O)/C=C/c2ccc(C(F)(F)F)cc2)CC1 [Comparative Example compound 3, reference compound] .
Reply: 5.44

###

Target: Human BOAT1 (Homo sapiens, UniProt Q695T7)
Construct: expressed in transfected cells
Test: hBOAT1 inhibitory test (phenylalanine uptake)
Format: cell-based
Conditions: Human BOAT1 stable expression CHO cells; [3H]-L-phenylalanine uptake, phenylalanine 0.25 mM; radioactivity after 100 to 200 min; read-out: hB0AT1 IC50
Protocol: A test compound dissolved in dimethyl sulfoxide (DMSO) was added to a 96 well plate for solid phase radioactivity measurement containing a scintillator at the bottom of the well (final concentration of DMSO 0.5%). DMSO alone as a control and DMSO containing N-(4-bromophenyl)-3,5-dichloro-2-hydroxybenzamide (final concentration […]) for the measurement of BOAT1 non-specific uptake were similarly added at 0.5 μL per well. […]
observable: IC50

O=C(O)CCCN1CCN(C(=O)CNC(=O)/C=C/c2ccc(C(F)(F)F)cc2F)[C@H](C(F)(F)F)C1 [I-244]	613 nM
O=C(/C=C/c1ccc(C(F)(F)F)cc1F)NCC(=O)N1CCN(C[C@H]2C[C@H](C(=O)O)C2)CC1c1ccc(Cl)cc1 (stereo partly shown) [I-248]	147 nM
Cc1nn(CC(=O)O)c2c1CN(C(=O)CNC(=O)/C=C/c1ccc(C(F)(F)F)cc1)CC2 [I-219]	256 nM

Query: Provide only the value of recorded IC50 for COC(=O)Cc1cc(F)c2c(c1)CCN(C(=O)CNC(=O)/C=C/c1ccc(C(F)(F)F)cc1F)C2 [I-118]
Reply: 42 nM

Query: Give the reported IC50 for this compound. O=C(O)Cc1cc(F)c2c(c1)CCN(C(=O)CNC(=O)/C=C/c1ccc(C(F)(F)F)cc1F)C2 [I-205]
Reply: 99 nM

Query: Please list IC50 recorded for the compound O=C(/C=C/c1ccc(C(F)(F)F)cc1)NCC(=O)N1CCc2cc([C@@H]3C[C@H]3C(=O)O)ccc2C1 (racemic) [I-172]
Reply: 155 nM

Query: For the compound CC(C(=O)O)c1ccc2c(c1)CCN(C(=O)CNC(=O)/C=C/c1ccc(C(F)(F)F)cc1)C2 (racemic) [I-171] , give its measured IC50 value.
Reply: 91 nM

###

biological target: Human BOAT1 (Homo sapiens); construct: expressed in transfected cells; test: hBOAT1 inhibitory test (phenylalanine uptake); format: cell-based; details: Human BOAT1 stable expression CHO cells; [3H]-L-phenylalanine uptake, phenylalanine 0.25 mM; radioactivity after 100 to 200 min; read-out: hB0AT1 IC50
observable: IC50 (nM)
Report only the number, with the unit nM understood.

O=C(O)Cc1ccc2c(c1)CCN(C(=O)CNC(=O)/C=C/c1ccc(C(F)(F)F)cc1F)C2	59

Query: # return recorded IC50 for entry O=C(O)Cc1ccc2n(c1=O)CCN(C(=O)CNC(=O)/C=C/c1ccc(C(F)(F)F)cc1F)C2
Reply: 579

Query: Find the measured IC50 of C[C@@H]1CN(C(=O)CNC(=O)/C=C/c2ccc(C(F)(F)F)cc2F)[C@@H](c2ccccc2)CN1CCCc1nn[nH]n1 and report it.
Reply: 2520

Query: Entry O=C(/C=C/c1ccc(C(F)(F)F)cc1F)NCC(=O)N1CCN(CC23CC(C(=O)O)(C2)C3)CC1c1ccc(Cl)cc1 (stereo not shown) needs its IC50 filled in; supply it.
Reply: 506

Query: Consider the compound CC(C)(Oc1cc(F)c2c(c1)CCN(C(=O)CNC(=O)/C=C/c1ccc(C(F)(F)F)cc1)C2)C(=O)O and give its recorded IC50.
Reply: 186

Query: Fill in reported IC50 for this entry: CNC(=O)Cc1ccc2c(n1)CCN(C(=O)CNC(=O)/C=C/c1ccc(C(F)(F)F)cc1)C2
Reply: 48
